- methodNotes: Volume of distribution in Wistar Han rat at 1 mg/kg, iv or 2 mg/kg, po
- Assay type: ADME, organism-based
- recordedConditions: in vivo
quantity: Vd (L/kg)
I only need the number, in L/kg, no unit after it.

Please review the entries below; each comes with its answer.
{"smilesText": "COc1cc(-c2ccc3c(c2)CC[C@H]3Oc2cccc([C@H](C3CC3)[C@H](C)C(=O)O)c2F)c(F)cn1", "unitName": "L/kg", "Vd": 0.78}
{"smilesText": "COc1ccc(F)c(-c2ccc3c(c2)CC[C@H]3Oc2cccc([C@H](C3CC3)[C@H](C)C(=O)O)c2)c1", "unitName": "L/kg", "Vd": 0.33}
{"smilesText": "COc1ccc(F)c(-c2ccc3c(c2)CC[C@H]3Oc2cccc([C@H](C3CC3)[C@H](C)C(=O)O)c2F)c1", "unitName": "L/kg", "Vd": 0.85}

The reported Vd of the molecule COc1cc(-c2ccc3c(c2)CC[C@H]3Oc2cccc([C@H](C3CC3)[C@H](C)C(=O)O)c2)c(F)cn1 was 0.18

---

- targetSystem: Free fatty acid receptor 1 (Homo sapiens, UniProt O14842)
- Sequence (O14842 whole entry): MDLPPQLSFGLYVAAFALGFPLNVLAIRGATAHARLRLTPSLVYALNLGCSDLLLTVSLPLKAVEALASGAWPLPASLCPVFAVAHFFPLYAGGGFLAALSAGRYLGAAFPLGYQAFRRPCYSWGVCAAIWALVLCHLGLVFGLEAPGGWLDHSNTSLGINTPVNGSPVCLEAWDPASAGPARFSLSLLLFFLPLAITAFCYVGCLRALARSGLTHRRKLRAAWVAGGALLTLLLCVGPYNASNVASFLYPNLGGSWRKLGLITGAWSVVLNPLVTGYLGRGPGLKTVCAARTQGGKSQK
- methodNotes: Positive allosteric modulation of recombinant human GPR40 expressed in HEK293 cells assessed as increase in [3H]-myo-inositol phosphate accumulation measured after 60 mins in absence of human serum by microbeta counting method
- Assay type: functional, cell-based
quantity: EC50
Kindly report the value followed by its unit.

# example entries with known answers
{"smilesText": "COc1ccc(F)c(-c2cc3c(cc2F)[C@H](Oc2cccc([C@H](C4CC4)[C@H](C)C(=O)O)c2)CC3)c1", "EC50": "155 nM"}
{"smilesText": "COc1cc(-c2ccc3c(c2)CC[C@H]3Oc2cccc([C@H](C3CC3)[C@H](C)C(=O)O)c2)ccn1", "EC50": "11 nM"}
{"smilesText": "COc1ccc(F)c(-c2ccc3c(c2F)CC[C@H]3Oc2cccc([C@H](C3CC3)[C@H](C)C(=O)O)c2)c1", "EC50": "3.9 nM"}

Could you now consider this next compound?
EC50 for COc1ccc(F)c(-c2ccc3c(c2)CC[C@H]3Oc2cccc([C@H](C3CC3)[C@H](C)C(=O)O)c2)c1 is 4.5 nM

---

Parameter: AUC/dose. Scope: all listed entries.
- methodNotes: Dose normalized AUC in Wistar Han rat at 2 mg/kg, po
- Format: ADME, organism-based
- recordedConditions: in vivo
Express the result in µM·h but write the number alone.

// known answers, use as guide
{"smilesText": "COc1cc(-c2ccc3c(c2)CC[C@H]3Oc2cccc([C@H](C3CC3)[C@H](C)C(=O)O)c2F)c(F)cn1", "AUC/dose [µM·h]": 36.2}
{"smilesText": "COc1ccc(F)c(-c2ccc3c(c2)CC[C@H]3Oc2cccc([C@H](C3CC3)[C@H](C)C(=O)O)c2)c1", "AUC/dose [µM·h]": 21.5}
{"smilesText": "COc1cc(-c2ccc3c(c2)CC[C@H]3Oc2cccc([C@H](C3CC3)[C@H](C)C(=O)O)c2)c(F)cn1", "AUC/dose [µM·h]": 99.9}

AUC/dose in this record for COc1ccc(F)c(-c2ccc3c(c2)CC[C@H]3Oc2cccc([C@H](C3CC3)[C@H](C)C(=O)O)c2F)c1 : 9.3

---

- methodNotes: Protein binding in human plasma assessed as unbound fraction level
- Format: ADME, cell-free
The threshold is 0.05%. Values of Fu beneath it are tagged YES; values meeting or exceeding it are tagged NO.

Worked set:
{"smilesText": "COc1ccc(F)c(-c2cnc3c(c2)CC[C@H]3Oc2cccc([C@H](C3CC3)[C@H](C)C(=O)O)c2)c1", "category": "NO"}
{"smilesText": "COc1cc(-c2ccc3c(c2)CC[C@H]3Oc2cccc([C@H](C3CC3)[C@H](C)C(=O)O)c2)ccn1", "category": "YES"}
{"smilesText": "COc1ccc(F)c(-c2ccc3c(c2)CC[C@H]3Oc2cccc([C@H](C3CC3)[C@H](C)C(=O)O)c2F)c1", "category": "YES"}

Incoming: Dear reviewer, please state whether COc1ccc(F)c(-c2ccc3c(c2)CC[C@H]3Oc2cccc([C@H](C3CC3)[C@H](C)C(=O)O)c2)c1 has Fu strictly beneath 0.05%.
Outgoing: YES

Incoming: Strictly below 0.05% in Fu? COc1cc(-c2ccc3c(c2)CC[C@H]3Oc2cccc([C@H](C3CC3)[C@H](C)C(=O)O)c2)c(F)cn1
Outgoing: YES

Incoming: Lab log: compare recorded Fu with 0.05%; is it strictly lower for COc1ccc(F)c(-c2cc3c(cn2)[C@H](Oc2cccc([C@H](C4CC4)[C@H](C)C(=O)O)c2)CC3)c1 ?
Outgoing: NO

Incoming: Lab note: confirm whether the reported Fu for this molecule is below 0.05%, equality not counting. molecule: COc1ccc(F)c(-c2ccc3c(c2)OC[C@@H]3Oc2cccc([C@@H](CC(=O)O)C3CC3)c2)c1
Outgoing: NO

---

- targetSystem: Free fatty acid receptor 1 (Homo sapiens, UniProt O14842)
- methodNotes: Positive allosteric modulation of recombinant human GPR40 expressed in HEK293 cells assessed as increase in [3H]-myo-inositol phosphate accumulation measured after 60 mins in presence of 100% human serum by microbeta counting method
- Assay type: functional, cell-based
So basically every entry gets a class from its fEC50, ranges being low class (below 0.3 nM), middle class (0.3 nM to below 3 nM), high class (3 nM or more)

{"smilesText": "COc1cc(-c2ccc3c(c2)CC[C@H]3Oc2cccc([C@H](C3CC3)[C@H](C)C(=O)O)c2)c(F)cn1", "category": "low class"}
{"smilesText": "COc1ccc(F)c(-c2ccc3c(c2)CC[C@@H]3Oc2cccc([C@H](C3CC3)[C@H](C)C(=O)O)c2)c1", "category": "middle class"}

Incoming: Dear colleague, I would appreciate it if you could identify the bin for COc1ccc(F)c(-c2ccc3c(c2)CC[C@H]3Oc2cccc([C@H](C3CC3)[C@H](C)C(=O)O)c2)c1 and reply at your convenience.
Outgoing: low class

Incoming: Band for COc1ccc(F)c(-c2ccc3c(c2F)CC[C@H]3Oc2cccc([C@H](C3CC3)[C@H](C)C(=O)O)c2)c1 ?
Outgoing: middle class

---

- methodNotes: Half-life in Wistar Han rat at 1 mg/kg, iv or 2 mg/kg, po
- Format: ADME, organism-based
- recordedConditions: in vivo
quantity: half-life (h)
The figure you give is taken to be in h; do not add the unit.

{"smilesText": "COc1ccc(F)c(-c2ccc3c(c2)CC[C@H]3Oc2cccc([C@H](C3CC3)[C@H](C)C(=O)O)c2F)c1", "unitName": "h", "numericResult": 3.1}
{"smilesText": "COc1cc(-c2ccc3c(c2)CC[C@H]3Oc2cccc([C@H](C3CC3)[C@H](C)C(=O)O)c2)c(F)cn1", "unitName": "h", "numericResult": 3.9}
{"smilesText": "COc1cc(-c2ccc3c(c2)CC[C@H]3Oc2cccc([C@H](C3CC3)[C@H](C)C(=O)O)c2F)c(F)cn1", "unitName": "h", "numericResult": 5.1}

Turning to the following molecule.
Entry COc1ccc(F)c(-c2ccc3c(c2)CC[C@H]3Oc2cccc([C@H](C3CC3)[C@H](C)C(=O)O)c2)c1 — recorded half-life = 1.8

---

Property: Activity; scope: individual compounds
- targetSystem: Free fatty acid receptor 1 (Homo sapiens)
- methodNotes: Positive allosteric modulation of recombinant human GPR40 expressed in HEK293 cells assessed as increase in [3H]-myo-inositol phosphate accumulation measured after 60 mins in presence of 100% human serum by microbeta counting method relative to control
- Assay type: functional, cell-based
Please reply with the bare figure in % and do not write the unit itself.

Below are worked cases with known answers.
{"smilesText": "COc1cc(-c2ccc3c(c2)CC[C@H]3Oc2cccc([C@H](C3CC3)[C@H](C)C(=O)O)c2F)c(F)cn1", "targetSystem": "Free fatty acid receptor 1 (Homo sapiens)", "numericResult": 318}
{"smilesText": "COc1ccc(F)c(-c2ccc3c(c2)CC[C@H]3Oc2cccc([C@H](C3CC3)[C@H](C)C(=O)O)c2F)c1", "targetSystem": "Free fatty acid receptor 1 (Homo sapiens)", "numericResult": 264}
{"smilesText": "COc1cc(-c2ccc3c(c2)CC[C@H]3Oc2cccc([C@H](C3CC3)[C@H](C)C(=O)O)c2)ccn1", "targetSystem": "Free fatty acid receptor 1 (Homo sapiens)", "numericResult": 372}

Shifting focus to the compound that follows.
Notebook: COc1ccc(F)c(-c2ccc3c(c2)CC[C@H]3Oc2cccc([C@H](C3CC3)[C@H](C)C(=O)O)c2)c1 , Activity read as 205

---

- methodNotes: Total drug level in rat plasma at 30 mg/kg, po
- Type: ADME, organism-based
- recordedConditions: in vivo
quantity: concentration (µM)
Please state the figure in µM; there is no need to write the unit.

The value of concentration measured for the molecule COc1ccc(F)c(-c2ccc3c(c2)CC[C@H]3Oc2cccc([C@H](C3CC3)[C@H](C)C(=O)O)c2)c1 turned out to be 17.3
